assay: Apparent permeability from basolateral to apical side of human Caco2 cells up to 120 mins by Michaelis-Menten equation analysis; type: ADME, cell-based, Caco-2; settings: Caco-2
measured-metric: Km at 2 h (µM)
Report the value in µM with no unit label.

Which Km at 2 h value belongs to `CC(C)c1nc(N(C)S(C)(=O)=O)nc(-c2ccc(F)cc2)c1/C=C/[C@@H](O)C[C@@H](O)CC(=O)[O-].CC(C)c1nc(N(C)S(C)(=O)=O)nc(-c2ccc(F)cc2)c1/C=C/[C@@H](O)C[C@@H](O)CC(=O)[O-].[Ca+2]` ?
98

----------
test: Apparent permeability from basolateral to apical side of vector transfected human Caco2 cells at 10 uM up to 120 mins by reverse-phase liquid chromatography with triple-quadrupole tandem mass spectrometry analysis; assay type: ADME, cell-based; settings: Caco-2
measured-metric: Papp B→A at 2 h, 10 µM
I'd appreciate it if you included the unit after the number.

Use the examples below as a reference point.
| compound | endpoint-value |
| --- | --- |
| C[C@H]1O[C@@H](O[C@H]2[C@@H](O)C[C@H](O[C@H]3[C@@H](O)C[C@H](O[C@H]4CC[C@@]5(C)[C@H](CC[C@@H]6[C@@H]5C[C@@H](O)[C@]5(C)[C@@H](C7=CC(=O)OC7)CC[C@]65O)C4)O[C@@H]3C)O[C@@H]2C)C[C@H](O)[C@@H]1O [DIGOXIN] | 20.1 ×10⁻⁶ cm/s |
| CC(C)c1nc(N(C)S(C)(=O)=O)nc(-c2ccc(F)cc2)c1/C=C/[C@@H](O)C[C@@H](O)CC(=O)[O-].CC(C)c1nc(N(C)S(C)(=O)=O)nc(-c2ccc(F)cc2)c1/C=C/[C@@H](O)C[C@@H](O)CC(=O)[O-].[Ca+2] [ROSUVASTATIN CALCIUM] | 14.1 ×10⁻⁶ cm/s |
| O=C1OC(c2ccc(O)c(S(=O)(=O)[O-])c2)(c2ccc(O)c(S(=O)(=O)[O-])c2)c2c(Br)c(Br)c(Br)c(Br)c21.[Na+].[Na+] [SULFOBROMOPHTHALEIN SODIUM] | 1.45 ×10⁻⁶ cm/s |
| C[C@]12CC[C@@H]3c4ccc(OS(=O)(=O)O)cc4CC[C@H]3[C@@H]1CCC2=O [ESTRONE SULFURIC ACID] | 27.2 ×10⁻⁶ cm/s |

Next compound, Papp B→A at 2 h, 10 µM to be filled in.
Look up Papp B→A at 2 h, 10 µM for this compound: CC(C)n1c(/C=C/C(O)CC(O)CC(=O)[O-])c(-c2ccc(F)cc2)c2ccccc21.[Na+] (racemic) [FLUVASTATIN SODIUM]
96.1 ×10⁻⁶ cm/s
